Target Entity: CDK2 (Homo sapiens)
Construct: endogenous in cells; host or cells: MDA-MB-231
Test Details: CDK protein degradation activity (Western blotting), CDK2
Assay type: cell-based
Condition Context: MDA-MB-231 cells, 0.1 μM, 16 hours, Western blot
Readout Type: Enzyme degradation CDK2 (% remaining) @ 0.1 μM

Take a look at these entries with their results.
>>> result("O=C1CC[C@H](N2C(=O)c3ccc(N4CC(C(=O)N5CCC(CN6CCC(CCNc7ncnc8c7ncn8[C@H]7C[C@@H](NC(=O)Cc8ccccc8)C7)CC6)CC5)C4)cc3C2=O)C(=O)N1")
"40/40/40%"
>>> result("O=C1CC[C@H](N2C(=O)c3cccc(NCC(=O)N4CCC(CCCN5CCN(c6ccc(Nc7ncnc8c7ncn8[C@H]7C[C@@H](NC(=O)Cc8ccccc8)C7)cc6)CC5)CC4)c3C2=O)C(=O)N1")
"20/—/20%"

Let us move to another entry and its Enzyme degradation CDK2 (% remaining) @ 0.1 μM.
Field Enzyme degradation CDK2 (% remaining) @ 0.1 μM (entry O=C1CC[C@H](N2C(=O)c3ccc(N4CCC(CN5CCN(c6ccc(Nc7ncnc8c7ncn8C7CC(NC(=O)c8cccc(C(F)(F)F)n8)C7)cc6)CC5)CC4)cc3C2=O)C(=O)N1 (stereo partly drawn) ) reads 10/10/10%
